Ref: ChEMBL document CHEMBL5113371

# Tested on: Mycobacterium tuberculosis H37Rv
# measurementDescription: Antibacterial activity against Mycobacterium tuberculosis H37Rv expressing GFP incubated for 7 days
# Type: functional, Mycobacterium tuberculosis variant bovis
# studyConditions: 168 h, time 7 day
Flag rule - MIC50 less than 20 µM flags 1.0; the remaining entries get 0.0.

Below, 8 compounds whose answers are already recorded.
CCCCCCCCCCCCCCCCO[P@]1(=O)OC[C@H]2COC(=O)C2=C(C)O1
1.0
CC(C)COc1nn(-c2ccccc2)c(=O)o1
0.0
NNC(=O)c1ccncc1 [ISONIAZID]
1.0
CCCCCCOc1nn(-c2ccccc2)c(=O)o1
0.0
CCCCCCCCCC[C@H]1CC[P@@](=O)(OC)OC(C)=C1C(=O)OC
1.0
CCCCCCCCCCCCCCCCOP1(=O)OCCC(C(=O)OC)=C(C)O1 (stereo not drawn)
1.0
CC(C)COc1nn(-c2ccc(Oc3ccccc3)cc2)c(=O)o1
0.0
O=c1oc(OCCOCc2ccccc2)nn1-c1ccc(Oc2ccccc2)cc1
0.0

Asked: Record "O=c1oc(OCCOCc2ccccc2)nn1-c1ccccc1" : is its MIC50 strictly below 20 µM?
Given back: 0.0

Asked: Record "CCCCCCCCCCCC[C@@H]1CC[P@@](=O)(OC)OC(C)=C1C(=O)OC" : is its MIC50 strictly below 20 µM?
Given back: 0.0

Asked: Record "CCCCCCCCCCCC[C@H]1CC[P@@](=O)(OC)OC(C)=C1C(=O)OC" : is its MIC50 strictly below 20 µM?
Given back: 0.0

Asked: Record "CCCCCCOc1nn(-c2ccc(Oc3ccccc3)cc2)c(=O)o1" : is its MIC50 strictly below 20 µM?
Given back: 0.0

Asked: Record CO[C@H]1/C=C/O[C@@]2(C)Oc3c(C)c(O)c4c(O)c(c(/C=N/N5CCN(C)CC5)c(O)c4c3C2=O)NC(=O)/C(C)=C\C=C\[C@H](C)[C@H](O)[C@@H](C)[C@@H](O)[C@@H](C)[C@H](OC(C)=O)[C@@H]1C [RIFAMPIN] : is its MIC50 strictly below 20 µM?
Given back: 1.0
